Data origin, for the record: patent US11440913B2

target: His-GST-TVMV-hRIPK1(1-324) (Homo sapiens (Human), UniProt Q13546); assay: RIPK1 HTRF Binding Assay; conditions: HTRF binding, 1 h at rt; read-out: RIPK1 (IC50)
Sequence (Q13546 1-324): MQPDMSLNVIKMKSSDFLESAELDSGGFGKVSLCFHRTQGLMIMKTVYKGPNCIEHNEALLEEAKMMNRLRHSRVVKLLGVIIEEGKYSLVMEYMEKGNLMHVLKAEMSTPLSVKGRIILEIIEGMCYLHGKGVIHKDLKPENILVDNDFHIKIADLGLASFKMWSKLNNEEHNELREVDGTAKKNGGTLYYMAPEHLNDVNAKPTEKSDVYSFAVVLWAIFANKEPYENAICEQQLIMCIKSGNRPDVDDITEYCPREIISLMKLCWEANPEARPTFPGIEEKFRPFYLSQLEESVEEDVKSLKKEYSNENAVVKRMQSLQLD
Entries and their pIC50
pIC50 is a log-scale quantity: -log10 of the concentration expressed in molar.

> print(dat)
                               smiles.input                          target.or.system  quantitative.result
1  CC(=O)OCC(=O)Nc1cn2nc(-c3cc(C(=O)NCc4cc(OC(F)(F)F)ccc4F)c(C)nc3C)ccc2n1  His-GST-TVMV-hRIPK1(1-324) (Homo sapiens (Human), UniProt Q13546)                 8.30
2  O=C(CN1CCC(C(F)(F)F)CC1)Nc1cn2nc(-c3cccc(C(=O)NCC[C@@H](O)c4ccc(Cl)cc4)c3F)ccc2n1  His-GST-TVMV-hRIPK1(1-324) (Homo sapiens (Human), UniProt Q13546)                 7.92
3  CC(=O)Nc1cn2nc(-c3cc(C(=O)NCC[C@H](O)c4ccc(Cl)cc4)c(C)cc3C)ccc2n1  His-GST-TVMV-hRIPK1(1-324) (Homo sapiens (Human), UniProt Q13546)                 8.52
4  CCC(=O)Nc1cn2nc(-c3cnc(OC)c(C(=O)NCc4cc(F)cc(F)c4OC4CCOCC4)c3)ccc2n1  His-GST-TVMV-hRIPK1(1-324) (Homo sapiens (Human), UniProt Q13546)                 8.70
5  CC(=O)Nc1cn2nc(-c3cc(C(=O)NCc4cc(OC(F)(F)F)ccc4F)ccc3Cl)ccc2n1  His-GST-TVMV-hRIPK1(1-324) (Homo sapiens (Human), UniProt Q13546)                 8.15
6  COc1ncc(-c2ccc3nc(NC(C)=O)cn3n2)cc1C(=O)NCc1ccccc1OCC1CCCC1  His-GST-TVMV-hRIPK1(1-324) (Homo sapiens (Human), UniProt Q13546)                 8.00

Turning now to a further record.
Query string: Please report the recorded pIC50 for [2H]C([2H])(NC(=O)c1cc(-c2ccc3nc(NC(C)=O)cn3n2)cnc1OC)c1cc(F)cc(F)c1OC1CCOCC1 .
Result string: 9.00

---

biological target: His-GST-TVMV-hRIPK1(1-324) (Homo sapiens (Human)); assay: RIPK1 HTRF Binding Assay; conditions: comparison compound of US2009/0163489; read-out: IC50 in the RIPK1 assay
property_label: pIC50
pIC50 is defined as minus the log10 of a concentration measured in mol/L.

Query string: I would be grateful if you could share the reported pIC50 for CC(=O)Nc1cn2nc(-c3cncc(NS(=O)(=O)c4ccc(F)cc4)c3)ccc2n1 [Example 11 in US2009/0163489, reference compound] .
Result string: 4.96

---

The following compounds are listed with their measured pIC50 values.
Target: His-GST-TVMV-hRIPK1(1-324) (Homo sapiens (Human), UniProt Q13546)
Test: RIPK1 HTRF Binding Assay
Conditions: HTRF binding, 1 h at rt; read-out: RIPK1 (IC50)
Protocol: A solution was prepared containing 0.2 nM Anti GST-Tb (Cisbio, 61GSTTLB), 90.6 nM probe and 1 nM His-GST-TVMV-hRIPK1(1-324) in FRET Buffer (20 mM HEPES, 10 mM MgCl2, 0.015% Brij-35, 4 mM DTT, 0.05 mg/mL BSA). […] FRET was measured using the EnVision plate reader (Excitation: 340 nm, Emission: 520 nm/[…]). Total signal (0% inhibition) was calculated from wells containing 10 nL DMSO only. […]
Give only the number. pIC50 is defined as minus log10 of concentration in molar units.

// known answers, use as guide
> print(dat)
                                   compound  property.label  quantitative.result
1  COc1ncc(-c2ccc3nc(NC(C)=O)cn3n2)cc1C(=O)NCc1c(F)ccc(F)c1OCC1CC1           pIC50                 8.40
2  COc1nc(C)c(-c2ccc3nc(NC(C)=O)cn3n2)cc1C(=O)NCc1ccccc1OC1CCOC1 (stereo not shown) [Example 306]           pIC50                 8.30
3  CC(=O)Nc1cn2nc(-c3cnc(C)c(C(=O)NCc4cc(F)cc(F)c4OC4CCOC(C)C4)c3)ccc2n1 (stereo not shown)           pIC50                 7.66

Query string: Request: pIC50, test system His-GST-TVMV-hRIPK1(1-324) (Homo sapiens (Human), UniProt Q13546), entry CC(=O)Nc1cn2nc(-c3cc(C(=O)NCc4cc(F)cc(F)c4OC4COC4)c(C)nc3C)ccc2n1
Result string: 7.77
